# testDetails: yeast display, Sf9 membrane polyspecificity reagent, FACS + sequencing; frameworks hold sequencing errors
attributeMeasured: polyreactivity (PSR sort gate)

Here's what some known entries look like.
biopolymersequence=QVQLVESGGGLVQAGGSLRISCAASGSIFTAYAMGWYRQAPGKERELVAAITQSAGSTYADSVKGRFTISRDNAKNTVYLPMHSLNQEDTAVSYCAARYRYPYYARYGYWGQGTQVTVSS result="high polyreactivity"
biopolymersequence=QFQLVESGGGLVQAGGSLRLSCAASGFTFRKYAMGWYRQAPGKERELVAAIRSTGRSNYADSVKGRFTISRDNAKNTVYFQMNSLKPVDTAVYYFNVDLTYYYYEVDYWGQGTQVTVSS result="high polyreactivity"
biopolymersequence=QVQLVASGGALVQAGGSLRLSCAASGFIFDYYAMGRYRPAPGKERELVAAITSRSGSTYYADSVKGRFTISRDNAKNTVYLQMNSLKPEDTAVYYCARRFKYGSTAWRFYYWGQGTQVTVSS result="high polyreactivity"
biopolymersequence=QVQLVESGGGLVQAGGSLRLSCAASGSIFVYYVMGWYRQAPGKERELVAAISSGGRTYYADSVKGRFTISRDNAKNTVYLQMNSLKPEDTAVYYCAAVWYWTQDYDYWGQGTQVTVSS result="low polyreactivity"
biopolymersequence=QVQLVESGGGLVQAGCSLRLSCAASGITFVGYAMGWYRQAPGKERELVAAISSSGGSTYYADSVKGRFTISRDNAKNTVYLQMNSLKPEDTAVYYCAKRRWWQKSLYDYWGQGTQVTVSS result="high polyreactivity"

Quick one: give me polyreactivity (PSR sort gate) for each item below, same order please.
1. QVQLVESGGGLVQAGGSLRLSCAASGSTFSSNAMGWYRQAPGKERELVAAINRTGNTYYADSVKGRFTISRDNAKNTVYLQMNSLKPEDTAVYYRNTVLNLYRGGGYWGQGTQVTVSS
2. QVQLVESAGGLVQAGGSLRLSCAASGIILYYYAMGWYRHAPGKERELVAAISSGGNTYYADSVKGRFTISRDNAKNTVYLQMNSLKPEDTAVYYCAAVTVIGGEYDYWGQGTQVTVSS
3. QVQLVESGGGLVQAGGSLRLSCAASGSIFGTYAMGWYRQAPGKERELVAAITSSGGSTYYADSVKGRFTISRDNAKNTVYLQMNSLKPEDTAVYYCAAYRRIRVGVPVRTYYYWGQGTQVTVSS
4. QVQLVESGGGLVQAGGSLRLSCAASGSTYPGNAMGWYRQAPGNERELVALINDGADTNYADSVKGRFTISRDNAKNTVYLQMNSLKPEDTAVYYCAKRSLYPTYDYWGQGTQVTVSS

Response:
low polyreactivity
low polyreactivity
high polyreactivity
low polyreactivity

Dear colleague, could you please provide polyreactivity (PSR sort gate) for the sequences listed below?
1. QVQLVESGGRLVQAGGSLRLSCAASGRILPGNAMGWYRQAPGKEREFVAAISYSGGRTYYADSVKGRFTISRDNAKNNVYLQMNSLKPEDTAVYSCAARSYGSAYYYWGQGTQVTVSS
2. QVQLVESGGGLVQAGGSLRLSCAASGSIFDGYALGWYRQAPGKEREFVAAIDTGDTRTYYADSVKGRFTISRDNAKNTVYLQMNSLKPEDTAVYYCNADDWAYGMDYWGQGTQVTVSS

Response:
1: high polyreactivity; 2: low polyreactivity

---

# testDetails: yeast display, Sf9 membrane polyspecificity reagent, FACS + sequencing; frameworks hold sequencing errors
attributeMeasured: polyreactivity (PSR sort gate)

biopolymersequence=QVQLVESGGGLVQAGGSLRLSCAASGITFGTYTMGWYRQAPGKERELVAAISRSGTGTYYADSVKGRFTISRDNAKNTVYLQMNSLKPEDTAVYYCAAAGYIYYGYEYLYGFEYWGQGTQVTVSS result="high polyreactivity"
biopolymersequence=QVQLVESGGGLVQAGGSLRLSCAASGRIFGRYAMGSYRQAPGKERELVAGINSGSTSYADSVRGRFTISRDNAKNTVYLQMNSLKPEDTAVYYCARGPRYRGGWDTFRGFDYWGQGTQVTVSS result="low polyreactivity"
biopolymersequence=QVQLVESGGGLVQAGGSLRLSCAASGRILYIYAMGWYRQAPGKERELVAAIRSSGGSTYYADSVKGRFTISRDNAKNSVYLQMNSLKPDDTAVYYCAATSRVSKSHLYGYWGQGTQVTVSS result="high polyreactivity"
biopolymersequence=QVQLVESGGGLVQAGGSLRLSCAASGITFGRYAMGWYRQAPGKERELVAAITWSGGSTYYADSVKGRFTISRDNSKNTVYLQMNSLKPEDTAVYYCAATWYPGRAGYYYWGQGTQVTVSS result="high polyreactivity"
biopolymersequence=QVQLVESGGGLVQAGGSLRVSCAASGNIFGEYAMGWYRQAPGKERELVAAITNSGGRTHYADSVKGRFTISRDNAKNTVYLQMNSLKPEDTAVYYCAAPTKYRSRRYYWGQGTQVTVSS result="high polyreactivity"

List the reported polyreactivity (PSR sort gate) of each sequence below.
1. QVQLVESGGGLVQAGGSLRLSCAASGSISVWYVMGWYRQAPGKEREFVAAIDYGGGSTYADSVKGRFTISRDNAKNTVYLQMNSLKPEDTAVYYCNADNWVYLYDYWGQGTQVTVSS
2. QVQLVESGGGLVQAGGSLRLSCAASGGTFTRYAMGWYRQAPGKEREFVAAITFSGGSTYYADSVKGRFTISRDNAKNTVYLQMNSLKPEDTAVYYCAVRERSTYRYYYWGQGTQVTVSS

Response:
1. low polyreactivity
2. high polyreactivity
